experiment: NCI Yeast Anticancer Drug Screen. Data for the sgs1 mgt1 strain (AID 161); details: S. cerevisiae sgs1 mgt1 strain, at 50.0 µM (retest, dose inferred, filed as 5.0)
The panel holds about 79,000 compounds, 15% with a hit somewhere; the sample as a whole holds those more often. The source made the active and inactive calls. Rule as the data show it: active = growth inhibition above about 70%; inactive = the rest.
A correct response names exactly one class from YES = active, NO = inactive

Request: # outcome recorded in this test, key = `CC(C)(C)c1ccc(O)c(CN(Cc2c(O)ccc3ccccc23)C2CCCCC2)c1`
Response: YES

Request: # fetch the recorded call for `COc1ccccc1NC(=O)C1=C(C)NC(C)=C(C(=O)Nc2ccccc2OC)C1c1ccccc1[N+](=O)[O-]` here
Response: NO

Request: Kindly provide the recorded test outcome for the following compound: `Cc1ccc(NC(=S)SCc2ccco2)cc1Cl`
Response: YES

Request: How was `CCCCN(CCCC)CCC(=O)c1ccc2c(ccc3ccccc32)c1` classified in this test?
Response: YES

Request: Called result for CS(=O)(=O)N1C(=O)C2C3CCC(O3)C2C1=O (stereo not given)
Response: NO

Request: Please indicate how the test categorized `CCCCCCCCc1ccc2c3ccccc3c3ccccc3c2c1` .
Response: NO

Request: Fill in: this test's call for CC12C(=O)OC(=O)C1C1c3ccccc3C2c2ccccc21 (stereo not given) is ___
Response: YES

Request: Per the assay record, what outcome was assigned to CC1C=CC(C)C2C(=O)C3C(C)C=CC(C)C3C(=O)C12 (stereo not given) ?
Response: NO

Request: Just curious, what result did CC(=O)OC1COC(n2ccc3cc(Br)c([N+](=O)[O-])cc32)C(OC(C)=O)C1OC(C)=O (stereo not given) get here?
Response: NO

Request: Answer briefly: the call reported for COc1cc(O)c2c(c1)C(=O)C1=C(C2=O)[C@@H](C)OC(C)[C@H]1O (stereo not given in full) in this assay.
Response: YES
